Collected log10(IC50) values appear next to each entry.
Test target: CYP1A2 (Homo sapiens, UniProt P05177)
Sequence (P05177 1-516): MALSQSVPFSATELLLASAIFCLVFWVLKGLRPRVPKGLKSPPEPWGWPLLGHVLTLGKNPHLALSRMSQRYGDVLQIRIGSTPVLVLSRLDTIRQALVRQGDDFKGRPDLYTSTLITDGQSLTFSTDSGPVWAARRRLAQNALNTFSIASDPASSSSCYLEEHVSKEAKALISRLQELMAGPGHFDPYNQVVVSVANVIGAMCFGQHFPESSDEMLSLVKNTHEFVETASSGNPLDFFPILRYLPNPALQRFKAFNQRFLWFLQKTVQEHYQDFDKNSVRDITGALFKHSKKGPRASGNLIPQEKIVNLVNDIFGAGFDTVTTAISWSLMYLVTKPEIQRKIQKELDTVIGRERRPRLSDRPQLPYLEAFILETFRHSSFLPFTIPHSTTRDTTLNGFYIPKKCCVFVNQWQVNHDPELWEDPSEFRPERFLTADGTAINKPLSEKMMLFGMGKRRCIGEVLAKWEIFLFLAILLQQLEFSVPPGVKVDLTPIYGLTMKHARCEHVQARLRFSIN
// stored as log10 of IC50 expressed in µM

Please report the measured log10(IC50) for O=C1COc2cc(NCc3cccc(C(=O)Nc4ccccc4O)c3)ccc2N1
1.43

Please report the measured log10(IC50) for O=C1COc2cc(NCc3cccc(C(=O)Nc4cccnc4)c3)c(O)cc2N1
0.43

Please report the measured log10(IC50) for Cc1nc(SC(C(=O)c2c[nH]c3ccccc23)c2ccccc2)sc1CC(N)=O (racemic)
1.10

Please report the measured log10(IC50) for O=C(CSc1nnc(-c2c[nH]c3ccccc23)n1Cc1ccco1)NCc1ccccc1Cl
0.65

Please report the measured log10(IC50) for O=C1COc2cc(NCc3cccc(C(=O)Nc4cccnc4)c3)ccc2N1
0.32

Please report the measured log10(IC50) for CCc1ccc(NC(=O)c2cc(C(=O)c3cc(OC)ccc3O)coc2=N)cc1
1.45

---

Parameter IC50, tested on CYP3A4 (Homo sapiens, UniProt P08684), listed per item.
Sequence (P08684 whole entry): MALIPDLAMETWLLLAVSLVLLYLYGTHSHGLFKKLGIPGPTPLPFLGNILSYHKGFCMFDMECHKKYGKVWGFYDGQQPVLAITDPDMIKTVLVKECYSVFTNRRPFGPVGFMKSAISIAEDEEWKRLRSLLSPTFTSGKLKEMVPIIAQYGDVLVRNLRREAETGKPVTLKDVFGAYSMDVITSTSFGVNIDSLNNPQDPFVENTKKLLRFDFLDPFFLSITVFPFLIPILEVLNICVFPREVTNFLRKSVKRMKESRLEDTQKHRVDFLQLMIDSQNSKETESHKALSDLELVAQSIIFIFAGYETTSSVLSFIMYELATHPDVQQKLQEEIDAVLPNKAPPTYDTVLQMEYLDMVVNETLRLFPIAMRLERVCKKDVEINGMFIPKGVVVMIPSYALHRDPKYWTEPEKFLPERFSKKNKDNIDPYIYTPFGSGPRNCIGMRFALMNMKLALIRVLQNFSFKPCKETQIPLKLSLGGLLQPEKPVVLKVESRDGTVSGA
Reply numerically in nM, unit not repeated.

The examples below pair each entry with its known result.
[
  {
    "Line notation": "O=C1COc2cc(NCc3cccc(C(=O)Nc4cccnc4)c3)c(O)cc2N1",
    "IC50 (nM)": 2800
  },
  {
    "Line notation": "O=C(CSc1nnc(-c2c[nH]c3ccccc23)n1Cc1ccco1)NCc1ccccc1Cl",
    "IC50 (nM)": 1100
  }
]

Please report the measured IC50 for Cc1cccc(C(=O)OCCOc2ccc(S(N)(=O)=O)cc2)c1N
3300

---

Parameter IC50, tested on UniProt:P33261, listed per item.
Sequence (P33261 whole entry): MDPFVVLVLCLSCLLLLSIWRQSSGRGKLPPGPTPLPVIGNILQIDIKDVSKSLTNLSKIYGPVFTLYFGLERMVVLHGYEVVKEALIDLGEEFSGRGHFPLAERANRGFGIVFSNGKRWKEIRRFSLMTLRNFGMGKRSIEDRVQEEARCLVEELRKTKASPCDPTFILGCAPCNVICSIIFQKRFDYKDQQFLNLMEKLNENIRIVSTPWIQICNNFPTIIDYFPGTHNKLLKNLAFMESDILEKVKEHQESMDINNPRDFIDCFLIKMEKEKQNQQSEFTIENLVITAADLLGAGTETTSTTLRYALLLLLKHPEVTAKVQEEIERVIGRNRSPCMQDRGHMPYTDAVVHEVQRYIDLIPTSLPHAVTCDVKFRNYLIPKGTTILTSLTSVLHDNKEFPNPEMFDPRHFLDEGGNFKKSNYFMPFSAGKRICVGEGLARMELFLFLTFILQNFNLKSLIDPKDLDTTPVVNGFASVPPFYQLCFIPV
Reply numerically in µM, unit not repeated.

The examples below pair each entry with its known result.
[
  {
    "Line notation": "Cc1cccc(C(=O)OCCOc2ccc(S(N)(=O)=O)cc2)c1N",
    "Test target": "UniProt:P33261",
    "Assay readout": "IC50",
    "Result": 1.5
  },
  {
    "Line notation": "O=C(CSc1nnc(-c2c[nH]c3ccccc23)n1Cc1ccco1)NCc1ccccc1Cl",
    "Test target": "UniProt:P33261",
    "Assay readout": "IC50",
    "Result": 3.5
  }
]

Moving on to another compound below.
Please report the measured IC50 for O=C1COc2cc(NCc3cccc(C(=O)Nc4cccnc4)c3)c(O)cc2N1
44.6

---

Test target: CYP17A1 (Homo sapiens)
Sequence (P05093 whole entry): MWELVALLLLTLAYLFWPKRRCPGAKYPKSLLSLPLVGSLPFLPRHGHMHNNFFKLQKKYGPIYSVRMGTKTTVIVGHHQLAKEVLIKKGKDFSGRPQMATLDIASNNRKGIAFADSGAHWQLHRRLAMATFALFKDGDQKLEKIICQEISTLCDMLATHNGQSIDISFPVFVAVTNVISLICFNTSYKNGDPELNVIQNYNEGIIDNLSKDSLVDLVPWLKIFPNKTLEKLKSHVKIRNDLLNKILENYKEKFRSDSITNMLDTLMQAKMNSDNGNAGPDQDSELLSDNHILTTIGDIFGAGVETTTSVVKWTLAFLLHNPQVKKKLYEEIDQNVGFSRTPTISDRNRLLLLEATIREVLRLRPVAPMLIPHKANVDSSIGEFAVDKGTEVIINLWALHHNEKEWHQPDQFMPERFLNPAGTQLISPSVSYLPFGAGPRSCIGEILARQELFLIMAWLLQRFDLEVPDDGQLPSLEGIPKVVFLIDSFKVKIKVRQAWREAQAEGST
Protocol description: CYP17A1 inhibition (CYP17A1 bactosomes, progesterone substrate, LC-MS/MS)
Type: biochemical
Design: purchased Cypex, Dundee, UK; host or cells: bacterial membranes (bactosomes)
Protocol conditions: summary of Table 2
Assay readout: inhibitory potency of CYP17A1 (in words)

[
  {
    "Compound": "O=C1COc2cc(NCc3cccc(C(=O)Nc4cccnc4)c3)ccc2N1 [Compound 10]",
    "Result": "micromolar levels"
  },
  {
    "Compound": "O=C(CSc1nnc(-c2c[nH]c3ccccc23)n1Cc1ccco1)NCc1ccccc1Cl [Compound 2]",
    "Result": "micromolar levels"
  },
  {
    "Compound": "CCc1ccc(NC(=O)c2cc(C(=O)c3cc(OC)ccc3O)coc2=N)cc1 [Compound 1]",
    "Result": "micromolar levels"
  }
]

---

Parameter IC50, tested on CYP2D6 (Homo sapiens, UniProt P10635), listed per item.
Sequence (P10635 whole entry): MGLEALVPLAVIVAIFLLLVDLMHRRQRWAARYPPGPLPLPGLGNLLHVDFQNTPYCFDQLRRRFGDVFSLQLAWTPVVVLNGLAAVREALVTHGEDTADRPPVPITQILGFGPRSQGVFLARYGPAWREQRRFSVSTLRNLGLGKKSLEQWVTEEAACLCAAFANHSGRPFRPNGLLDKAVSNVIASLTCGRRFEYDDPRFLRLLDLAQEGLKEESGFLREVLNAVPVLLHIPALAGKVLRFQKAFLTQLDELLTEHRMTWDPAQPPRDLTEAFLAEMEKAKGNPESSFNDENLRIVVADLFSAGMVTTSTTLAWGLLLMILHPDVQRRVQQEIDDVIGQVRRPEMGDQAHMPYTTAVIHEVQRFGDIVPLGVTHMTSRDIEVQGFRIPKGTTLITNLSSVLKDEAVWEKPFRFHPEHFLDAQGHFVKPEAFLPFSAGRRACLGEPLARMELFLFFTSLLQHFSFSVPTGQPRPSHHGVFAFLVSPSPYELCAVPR
Reply numerically in µM, unit not repeated.

[
  {
    "Compound": "CCc1ccc(NC(=O)c2cc(C(=O)c3cc(OC)ccc3O)coc2=N)cc1",
    "IC50 [µM]": 36.3
  }
]

Moving on to another compound below.
Please report the measured IC50 for Cc1nc(SC(C(=O)c2c[nH]c3ccccc23)c2ccccc2)sc1CC(N)=O (racemic)
15

---

Collected pIC50 values appear next to each entry.
Test target: CYP17A1 (Homo sapiens)
Protocol description: CYP17A1 inhibition (CYP17A1 bactosomes, progesterone substrate, LC-MS/MS)
Format: biochemical
Design: purchased Cypex, Dundee, UK; host or cells: bacterial membranes (bactosomes)
Protocol conditions: 20 pmol/ml bactosomes, 0.1 μM progesterone, 50 μM to 50 nM
pIC50: −log10 of the molar value.

The examples below pair each entry with its known result.
[
  {
    "Compound": "O=C(Nc1ccccc1O)c1ccc(Oc2cccc(C(=O)Nc3ccccc3O)c2)cc1",
    "Test target": "CYP17A1 (Homo sapiens)",
    "pIC50": "< 4.30"
  },
  {
    "Compound": "O=C1COc2cc(NCc3cccc(C(=O)Nc4cccnc4)c3)ccc2N1",
    "Test target": "CYP17A1 (Homo sapiens)",
    "pIC50": "< 4.30"
  },
  {
    "Compound": "O=C1COc2cc(NCc3cccc(C(=O)Nc4cccnc4)c3)c(Cl)cc2N1",
    "Test target": "CYP17A1 (Homo sapiens)",
    "pIC50": "< 4.30"
  }
]

Please report the measured pIC50 for Cc1nc(SC(C(=O)c2c[nH]c3ccccc23)c2ccccc2)sc1CC(N)=O (racemic)
< 4.47

Please report the measured pIC50 for CCc1ccc(NC(=O)c2cc(C(=O)c3cc(OC)ccc3O)coc2=N)cc1
< 4.30

Please report the measured pIC50 for O=C(CSc1nnc(-c2c[nH]c3ccccc23)n1Cc1ccco1)NCc1ccccc1Cl
< 4.30

---

Test target: CYP19A1 (Homo sapiens)
Protocol description: CYP19A1 inhibition (CYP19/MFC High Throughput Inhibitor Screen Kit, fluorescence)
Format: biochemical
Assay readout: pIC50
Formally, pIC50 is defined as -log10 of the concentration c, with c in mol/L.

Please report the measured pIC50 for Cc1cccc(C(=O)OCCOc2ccc(S(N)(=O)=O)cc2)c1N
4.36

---

Test target: CYP2C9 (Homo sapiens, UniProt P11712)
Sequence (P11712 whole entry): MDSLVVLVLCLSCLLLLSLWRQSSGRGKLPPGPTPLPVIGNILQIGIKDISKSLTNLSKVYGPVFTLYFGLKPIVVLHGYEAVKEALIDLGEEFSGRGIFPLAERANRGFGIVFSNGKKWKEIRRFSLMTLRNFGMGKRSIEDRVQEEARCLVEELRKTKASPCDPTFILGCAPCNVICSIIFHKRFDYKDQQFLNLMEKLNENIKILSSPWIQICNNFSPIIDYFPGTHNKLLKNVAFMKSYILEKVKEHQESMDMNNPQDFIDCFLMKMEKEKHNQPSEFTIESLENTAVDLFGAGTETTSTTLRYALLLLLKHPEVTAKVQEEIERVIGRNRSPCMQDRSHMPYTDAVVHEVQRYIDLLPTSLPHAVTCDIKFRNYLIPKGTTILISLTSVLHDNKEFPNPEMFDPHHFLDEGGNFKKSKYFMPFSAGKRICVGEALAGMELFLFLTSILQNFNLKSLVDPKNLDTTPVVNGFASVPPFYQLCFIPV
pIC50: −log10 of the molar value.
Answer not satisfied if pIC50 is under 5, and satisfied if it is 5 or more.

Some solved cases for reference:
[
  {
    "Line notation": "O=C1COc2cc(NCc3cccc(C(=O)Nc4ccccc4O)c3)ccc2N1",
    "Answer label": "satisfied"
  },
  {
    "Line notation": "O=C1COc2cc(NCc3cccc(C(=O)Nc4cccnc4)c3)ccc2N1",
    "Answer label": "not satisfied"
  },
  {
    "Line notation": "Cc1cccc(C(=O)OCCOc2ccc(S(N)(=O)=O)cc2)c1N",
    "Answer label": "not satisfied"
  }
]

Evaluate CCc1ccc(NC(=O)c2cc(C(=O)c3cc(OC)ccc3O)coc2=N)cc1 : pIC50 at minimum 5?
satisfied

Evaluate O=C(CSc1nnc(-c2c[nH]c3ccccc23)n1Cc1ccco1)NCc1ccccc1Cl : pIC50 at minimum 5?
satisfied

---

Test target: CYP19A1 (Homo sapiens)
Sequence (P11511 1-503): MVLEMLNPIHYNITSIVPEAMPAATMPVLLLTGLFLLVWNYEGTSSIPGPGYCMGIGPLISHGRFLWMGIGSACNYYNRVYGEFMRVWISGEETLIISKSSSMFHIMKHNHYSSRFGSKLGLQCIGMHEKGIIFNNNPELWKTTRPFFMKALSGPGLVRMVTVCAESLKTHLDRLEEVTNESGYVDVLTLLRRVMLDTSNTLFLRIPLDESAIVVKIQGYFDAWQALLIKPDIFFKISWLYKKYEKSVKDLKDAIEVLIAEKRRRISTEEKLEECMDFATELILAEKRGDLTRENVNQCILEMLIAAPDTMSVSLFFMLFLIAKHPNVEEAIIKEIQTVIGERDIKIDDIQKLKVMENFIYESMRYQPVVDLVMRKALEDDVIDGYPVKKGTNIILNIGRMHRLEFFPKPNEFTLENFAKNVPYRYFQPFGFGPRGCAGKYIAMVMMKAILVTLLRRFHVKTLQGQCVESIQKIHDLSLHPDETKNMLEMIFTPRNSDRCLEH
Protocol description: CYP19A1 inhibition (CYP19/MFC High Throughput Inhibitor Screen Kit, fluorescence)
Type: biochemical
Protocol conditions: 7.5 pmol/ml CYP19A1, 25 μM MFC; top concentration 50 μM (acetonitrile) or 25 μM (DMSO); read-out: CYP19A1 IC50
Collected pIC50 values appear next to each entry.
Formally, pIC50 is defined as -log10 of the concentration c, with c in mol/L.

[
  {
    "Line notation": "O=C1COc2cc(NCc3cccc(C(=O)Nc4ccccc4O)c3)ccc2N1",
    "Result": 5.07
  },
  {
    "Line notation": "O=C1COc2cc(NCc3cccc(C(=O)Nc4cccnc4)c3)c(Cl)cc2N1",
    "Result": 4.84
  },
  {
    "Line notation": "O=C1COc2cc(NCc3cccc(C(=O)Nc4cccnc4)c3)c(O)cc2N1",
    "Result": 5.23
  }
]

Moving on to another compound below.
Please report the measured pIC50 for O=C1COc2cc(NCc3cccc(C(=O)Nc4cccnc4)c3)ccc2N1
5.24
